testTarget: UniProt P48775
Sequence (P48775 whole entry): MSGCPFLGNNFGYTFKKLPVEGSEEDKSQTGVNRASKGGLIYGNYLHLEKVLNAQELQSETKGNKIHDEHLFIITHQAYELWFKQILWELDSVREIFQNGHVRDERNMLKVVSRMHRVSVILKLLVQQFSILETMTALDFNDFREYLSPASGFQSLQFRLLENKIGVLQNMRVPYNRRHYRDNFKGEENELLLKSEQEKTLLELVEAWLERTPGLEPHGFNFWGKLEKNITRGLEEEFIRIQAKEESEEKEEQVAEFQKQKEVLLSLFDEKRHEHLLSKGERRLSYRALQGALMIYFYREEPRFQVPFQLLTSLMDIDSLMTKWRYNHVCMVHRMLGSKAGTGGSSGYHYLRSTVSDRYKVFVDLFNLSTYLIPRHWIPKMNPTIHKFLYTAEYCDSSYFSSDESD
experimentNotes: Enzyme-based TDO activity assay (kynurenine absorbance at 492 nm)
Type: biochemical
conditionParameters: at 50 μM; shown when calculated IC50 >50 μM; read-out: TDO inhibition rate (%) at 50 μM
metric: inhibition at 50 µM (%)

// worked examples, inhibition at 50 µM included
compound	unitSymbol	inhibition at 50 µM
ONCc1c[nH]c2ccccc12 [DX-01-14, N-((1H-indol-3-yl)methyl)hydroxylamine]	%	38.2
O=C(O)c1c[nH]c2c(Br)cccc12	%	16.9
O/N=C/c1c(F)cccc1-c1c[nH]cn1	%	12.9

I. ONCc1ccccc1-c1c[nH]cn1
II. COc1ccc(Cl)cc1-c1cn(Cc2ccc(C(F)(F)F)cc2)nn1
Incoming: Between I and II , which one has the lower reported inhibition at 50 µM value? # reply format: chosen label
Outgoing: I
(I: 11.1%, II: 23.6%)
